Biological target: Kelch-like ECH-associated protein 1 (Homo sapiens) (UniProt Q14145)
Sequence (Q14145 whole entry): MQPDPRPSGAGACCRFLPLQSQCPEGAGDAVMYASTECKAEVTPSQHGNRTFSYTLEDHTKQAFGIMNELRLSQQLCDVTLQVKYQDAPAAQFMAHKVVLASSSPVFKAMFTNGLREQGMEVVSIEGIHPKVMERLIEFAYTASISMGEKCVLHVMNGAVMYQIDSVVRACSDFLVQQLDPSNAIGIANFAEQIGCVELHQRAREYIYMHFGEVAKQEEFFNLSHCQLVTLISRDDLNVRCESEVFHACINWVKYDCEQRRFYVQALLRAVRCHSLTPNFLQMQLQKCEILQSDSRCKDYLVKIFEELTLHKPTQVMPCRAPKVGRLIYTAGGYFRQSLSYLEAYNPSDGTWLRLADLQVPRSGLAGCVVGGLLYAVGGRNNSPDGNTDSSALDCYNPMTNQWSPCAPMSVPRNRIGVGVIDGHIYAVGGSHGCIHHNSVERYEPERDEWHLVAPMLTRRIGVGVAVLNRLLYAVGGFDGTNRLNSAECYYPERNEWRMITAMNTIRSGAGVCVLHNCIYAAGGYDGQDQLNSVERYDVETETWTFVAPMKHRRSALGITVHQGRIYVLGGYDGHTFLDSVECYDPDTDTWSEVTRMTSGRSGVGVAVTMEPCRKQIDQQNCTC
Reported ΔTm by item:
Answer with a number only, understood to be in °C.

Solved cases below.
SMILES_TEXT: CCOc1ccc(S(=O)(=O)Nc2cc(Sc3nc[nH]n3)c(O)c3ccccc23)cc1
TEST_READOUT: ΔTm
VAL: 4
--
SMILES_TEXT: O=C1NN(c2cccc(Cl)c2)C(=O)/C1=C\c1ccc(-c2ccc(C(=O)O)c(Cl)c2)o1
TEST_READOUT: ΔTm
VAL: 2
--
SMILES_TEXT: Cc1ccc(S(=O)(=O)Nc2cc(Sc3nc4ccccc4s3)c(O)c3ccccc23)cc1
TEST_READOUT: ΔTm
VAL: 1

**Query** Write down the reported ΔTm of Cc1ccccc1NC(=O)CN1C(=O)S/C(=C\c2cccn2-c2cccc(C(=O)O)c2)C1=O , test system: Kelch-like ECH-associated protein 1 (Homo sapiens) (UniProt Q14145).
**Result** 1

**Query** Write down the reported ΔTm of COc1ccc(S(=O)(=O)Nc2ccc(NS(=O)(=O)c3ccc(OC)cc3)c3ccccc23)cc1 , test system: Kelch-like ECH-associated protein 1 (Homo sapiens) (UniProt Q14145).
**Result** 1

**Query** Write down the reported ΔTm of Cc1cc(C)c(S(=O)(=O)Nc2cc3sc(=O)oc3c3ccccc23)cc1C , test system: Kelch-like ECH-associated protein 1 (Homo sapiens) (UniProt Q14145).
**Result** 1
